System: P. aeruginosa PA14 pqsA'::lux
assay.method.text: pqsA'::lux fusion in P. aeruginosa PA14
Type: cell-based
assay.conditions: Pseudomonas aeruginosa, PA14, read-out: IC50, pqsA'::lux expression in PA14
experimental.readout: pIC50
One number for each entry, as −log10 of the molar value.

Which measured pIC50 value corresponds to C=C1NC(=O)C=C1c1ccc(Cl)cc1 ? 4.75

---

measured.target: PqsR (Pseudomonas aeruginosa)
Construct: endogenous in cells; host or cells: P. aeruginosa PAO1-L ΔpqsA, chromosomal pqsA::lux fusion
assay.method.text: PQS-dependent pqsA::lux expression in AQ-non producing PAO1-L ΔpqsA (PqsR antagonism)
Assay type: cell-based
assay.conditions: EC50 of PQS for pqsA::lux expression in the presence of lactam 488, fixed concentration of 488 (215 μM), range of PQS concentrations, FIG. 8
experimental.readout: pEC50
Give bare numbers, as −log10 of the molar value.

Which measured pEC50 value corresponds to CCCCCCCc1[nH]c2ccccc2c(=O)c1O [PQS, 2-heptyl-3-hydroxy-4-(1H)-quinolone, reference compound] ? 4.51

---

Exercise: for every item that follows, state its recorded IC50.
System: P. aeruginosa PAO1 pqsA::lux
assay.method.text: pqsA::lux promoter fusion biosensor in P. aeruginosa PAO1-L (AQ-dependent quorum sensing)
Assay type: cell-based, Pseudomonas aeruginosa
assay.conditions: Pseudomonas aeruginosa, PAO1, read-out: IC50, pqsA::lux expression
Give bare numbers, in µM.

Which measured IC50 value corresponds to C=C1NC(=O)C=C1c1ccc(Cl)cc1 [Lactam 488] ? 22

Would you kindly look at the next entry?
Which measured IC50 value corresponds to C=C1NC(=O)C=C1c1ccc(C)cc1 [Lactam 491, 5-methylene-4-(p-tolyl)pyrrol-2-one] ? 44

---

measured.target: PqsR (Pseudomonas aeruginosa)
Construct: endogenous in cells; host or cells: P. aeruginosa PAO1-L ΔpqsA, chromosomal pqsA::lux fusion
assay.method.text: PQS-dependent pqsA::lux expression in AQ-non producing PAO1-L ΔpqsA (PqsR antagonism)
Format: cell-based
assay.conditions: PQS alone, PAO1-L ΔpqsA pqsA::lux; read-out: EC50 of PQS for pqsA::lux expression
experimental.readout: pEC50
Give bare numbers, as −log10 of the molar value.

Which measured pEC50 value corresponds to CCCCCCCc1[nH]c2ccccc2c(=O)c1O [PQS, 2-heptyl-3-hydroxy-4-(1H)-quinolone, reference compound] ? 5.70

---

measured.target: PqsR (Pseudomonas aeruginosa, UniProt Q9I4X0)
Construct: endogenous in cells; host or cells: P. aeruginosa PAO1-L ΔpqsA, chromosomal pqsA::lux fusion
Sequence (Q9I4X0 whole entry, the tested form may be a part): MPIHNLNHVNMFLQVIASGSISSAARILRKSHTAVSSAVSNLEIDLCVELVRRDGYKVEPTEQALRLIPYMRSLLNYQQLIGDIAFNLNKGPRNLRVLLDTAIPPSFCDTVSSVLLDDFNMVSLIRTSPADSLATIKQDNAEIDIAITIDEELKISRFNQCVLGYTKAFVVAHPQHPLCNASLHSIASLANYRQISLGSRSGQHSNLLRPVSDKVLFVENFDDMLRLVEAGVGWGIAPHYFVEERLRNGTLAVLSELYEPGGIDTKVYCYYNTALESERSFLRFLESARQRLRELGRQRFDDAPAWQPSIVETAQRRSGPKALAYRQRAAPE
assay.method.text: PQS-dependent pqsA::lux expression in AQ-non producing PAO1-L ΔpqsA (PqsR antagonism)
Type: cell-based
assay.conditions: EC50 of PQS for pqsA::lux expression, PQS alone, PAO1-L ΔpqsA pqsA::lux
experimental.readout: EC50

Which measured EC50 value corresponds to CCCCCCCc1[nH]c2ccccc2c(=O)c1O [PQS, 2-heptyl-3-hydroxy-4-(1H)-quinolone, reference compound] ? ~2 µM
